Reference source: patent US20230250054A1

molecular target: HDAC6 (Homo sapiens); construct: our assay that uses approximately 0.6 nM concentration of the full-length enzyme; made in house; host or cells: HEK293/T17 cells, transient transfection; experiment: Fluorescence-based HDAC inhibition assay, HDAC6; format: biochemical; conditions: Table 2
Sequence (Q9UBN7 whole entry): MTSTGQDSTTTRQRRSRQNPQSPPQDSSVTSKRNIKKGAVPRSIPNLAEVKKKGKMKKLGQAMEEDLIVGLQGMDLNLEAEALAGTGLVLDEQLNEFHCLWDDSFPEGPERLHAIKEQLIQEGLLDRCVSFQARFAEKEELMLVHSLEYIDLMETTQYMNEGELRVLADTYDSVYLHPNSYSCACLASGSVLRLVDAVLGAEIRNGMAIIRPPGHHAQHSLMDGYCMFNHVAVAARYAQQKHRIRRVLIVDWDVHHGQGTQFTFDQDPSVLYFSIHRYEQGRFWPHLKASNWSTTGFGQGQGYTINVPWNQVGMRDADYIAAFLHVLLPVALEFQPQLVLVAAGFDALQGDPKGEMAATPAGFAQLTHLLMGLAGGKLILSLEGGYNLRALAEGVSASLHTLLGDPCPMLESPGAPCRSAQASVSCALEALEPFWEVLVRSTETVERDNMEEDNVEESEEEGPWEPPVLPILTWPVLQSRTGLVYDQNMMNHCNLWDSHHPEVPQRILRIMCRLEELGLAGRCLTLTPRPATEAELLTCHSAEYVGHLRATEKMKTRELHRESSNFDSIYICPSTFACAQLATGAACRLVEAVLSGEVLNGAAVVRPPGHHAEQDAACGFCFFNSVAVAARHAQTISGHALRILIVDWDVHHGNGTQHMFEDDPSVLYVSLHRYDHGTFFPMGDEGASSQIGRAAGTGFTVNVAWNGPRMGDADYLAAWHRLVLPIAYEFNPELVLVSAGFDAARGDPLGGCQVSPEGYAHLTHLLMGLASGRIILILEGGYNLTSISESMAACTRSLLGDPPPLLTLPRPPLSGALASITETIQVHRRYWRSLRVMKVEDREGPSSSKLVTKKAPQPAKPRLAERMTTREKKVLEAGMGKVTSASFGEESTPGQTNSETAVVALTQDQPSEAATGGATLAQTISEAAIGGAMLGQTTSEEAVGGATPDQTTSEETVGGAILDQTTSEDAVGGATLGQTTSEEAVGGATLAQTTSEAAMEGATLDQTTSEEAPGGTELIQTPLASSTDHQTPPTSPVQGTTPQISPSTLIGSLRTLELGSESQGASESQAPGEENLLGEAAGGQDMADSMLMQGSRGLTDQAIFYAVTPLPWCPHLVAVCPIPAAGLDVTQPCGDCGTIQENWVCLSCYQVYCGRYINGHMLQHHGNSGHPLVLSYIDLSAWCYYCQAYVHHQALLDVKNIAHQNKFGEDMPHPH
Test Readout: IC50

Solved entries (count: 3):
| Structure String | IC50 |
| --- | --- |
| NCc1ccc(NC(=O)N(CCCCO)Cc2ccc(C(N)=O)cc2)cc1 | > 30 µM |
| NCc1ccc(NC(=O)N(CCCCO)Cc2ccc(C(=O)O)cc2)cc1 | 16.8 µM |
| NCc1ccc(NC(=O)N(CCCCO)Cc2ccc(C(=O)NO)cc2)cc1 | 0.0004 µM |

**Query** # IC50 lookup, item NCc1ccc(NC(=O)N(CCCCO)Cc2ccc(B(O)O)cc2)cc1
**Result** > 30 µM
